test: Tmax in RA patient at 7.5 to 25 mg, im; type: ADME, organism-based; conditions: human, in vivo
Measure: Tmax (h)
Give a bare numeral; the unit h is implied.

# return recorded Tmax for input CN(Cc1cnc2nc(N)nc(N)c2n1)c1ccc(C(=O)N[C@@H](CCC(=O)O)C(=O)O)cc1 [METHOTREXATE]
1.3

---

assay: Oral bioavailability in human; type: ADME, organism-based; conditions: in vivo
Measure: bioavailability

# return recorded bioavailability for input CN(Cc1cnc2nc(N)nc(N)c2n1)c1ccc(C(=O)N[C@@H](CCC(=O)O)C(=O)O)cc1 [METHOTREXATE]
50 to 80%
